# Tgt: T1, recombinant hIL-18Rα extracellular domain (human, UniProt Q13478 22-329, biotin label (selection) or fluorescent probe (single-clone FACS), sites not given)
# T1 construct: extracellular domain; also called hIL-18Rα ECD; hIL-18Rα-ECD
# T1 sequence (looked up): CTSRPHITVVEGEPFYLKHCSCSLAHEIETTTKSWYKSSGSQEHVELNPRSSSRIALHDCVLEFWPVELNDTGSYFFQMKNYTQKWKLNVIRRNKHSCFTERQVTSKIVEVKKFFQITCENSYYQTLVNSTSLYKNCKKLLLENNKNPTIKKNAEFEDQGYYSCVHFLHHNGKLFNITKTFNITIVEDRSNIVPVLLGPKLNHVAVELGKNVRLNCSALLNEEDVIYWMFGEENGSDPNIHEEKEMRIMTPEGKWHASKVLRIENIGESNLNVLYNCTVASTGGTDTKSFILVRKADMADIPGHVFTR
# Experiment Description: single-clone FACS, yeast display, 10 nM labelled hIL-18Rα ECD
Reported Property: % of fluorescence positive cells (%)
Numeric only. Scale: %

Record excerpt, results attached:
{"Binder": "SEQ ID NO 37 (ligand) YFPKLRSKLSVIRNLNDQVLFIDQGNRPLFEDMTDSDCRDNAPRTIFIISMYKGSGIRGMAVTISVKCEKISTLSCENKIISFKEMNPPDGIKDTKSDIIFFQRSVPGHDNKMQFESSSYEGYFLACEKERDLFKLILKKEDELGDRSIMFTVQNED", "Value Units": "%", "% of fluorescence positive cells": 88.4}
{"Binder": "SEQ ID NO 106 (ligand) YFPKLSSKLSVIRNLNDQVLFIDQGNRPLFEDMTDSDCRDNAPRTIFIISMYKASSLRGMAVTISVKCEKISTLSCENKIISFKEMNPPDSIKDTKSDIIFFQRSVPGHDNKMQFESSSYEGYFLACEKERDLFKLILKKEDELGDRSIMFTVQNED", "Value Units": "%", "% of fluorescence positive cells": 1.34}
{"Binder": "SEQ ID NO 111 (ligand) YFPKLESKLSVIRNLNDQVLFIDQGNRPLFEDMTDSDCRDNAPRTIFIISMYKYSSKRGMAVTISVKCEKISTLSCENKIISFKEMNPPDGIKDTKSDIIFFQRSVPGHDNKMQFESSSYEGYFLACEKERDLFKLILKKEDELGDRSIMFTVQNED", "Value Units": "%", "% of fluorescence positive cells": 0.69}
{"Binder": "SEQ ID NO 36 (ligand) YFPKLRSKLSVIRNLNDQVLFIDQGNRPLFEDMTDSDCRDNAPRTIFIISMYKWSRPRGMAVTISVKCEKISTLSCENKIISFKEMNPPDSIKDTKSDIIFFQYSVPGHDNKMQFESSSYEGYFLACEKERDLFKLILKKEDELGDRSIMFTVQNED", "Value Units": "%", "% of fluorescence positive cells": 88.5}
{"Binder": "SEQ ID NO 31 (ligand) YFPKLKSKLSVIRNLNDQVLFIDQGNRPLFEDMTDSDCRDNAPRTIFIISMYKWSARRGMAVTISVKCEKISTLSCENKIISFKEMNPPDPIKDTKSDIIFFQSSVPGHDNKMQFESSSYEGYFLACEKERDLFKLILKKEDELGDRSIMFTVQNED", "Value Units": "%", "% of fluorescence positive cells": 89.5}

// switching to the query binder
Task: % of fluorescence positive cells lookup needed for IL-18 variant polypeptide M21 (ligand) YFPKLRSKLSVIRNLNDQVLFIDQGNRPLFEDMTDSDCRDNAPRTIFIISMYKSSSTRGMAVTISVKCEKISTLSCENKIISFKEMNPPDGIKDTKSDIIFFQSSVPGHDNKMQFESSSYEGYFLACEKERDLFKLILKKEDELGDRSIMFTVQNED , thanks.
Result: 89.9
